Reference for the values: paper PMC4380771

assay system: HIF2α (Homo sapiens)
Sequence (Q99814 239-350): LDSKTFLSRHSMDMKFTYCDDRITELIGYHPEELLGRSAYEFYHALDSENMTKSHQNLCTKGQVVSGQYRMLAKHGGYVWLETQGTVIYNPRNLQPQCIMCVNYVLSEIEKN
pKd: −log10 of the molar value.

smiles input	pKd
O=[N+]([O-])c1c(Nc2cc(F)cc(Cl)c2)ccc2nonc12	6.98
